For each entry below, report its pIC50 value.
SYSTEM NAME: KRAS G12D (Homo sapiens (Human), UniProt P01116+P62937, G12D)
Sequence (P01116-2 other isoform, or with tags, fused parts or gaps G12D, one chain of several): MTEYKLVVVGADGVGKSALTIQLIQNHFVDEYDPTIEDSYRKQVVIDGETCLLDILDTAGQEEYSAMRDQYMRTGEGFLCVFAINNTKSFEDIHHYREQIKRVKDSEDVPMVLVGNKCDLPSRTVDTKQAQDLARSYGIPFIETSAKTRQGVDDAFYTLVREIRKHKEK
ASSAY PROCEDURE: Ras-Raf (BRAF RBD) disruption / FRET / MOA assay, KRAS G12D
Format: biochemical
TEST CONTEXT: Ras-Raf disruption/FRET/MOA assay; class symbols; read-out: KRAS G12D FRET data IC50
pIC50: −log10 of the molar value.

Find pIC50 for C=CC(=O)N1CC[C@H](C(=O)N(C)[C@H](C(=O)NN2Cc3cc(O)cc(c3)-c3ccc4c(c3)c(c(-c3cccnc3[C@H](C)OC)n4CC)CC(C)(C)COC(=O)[C@@H]3CCCN(N3)C2=O)C(C)C)C1 (atropisomer, axis not shown) [Example A233] on KRAS G12D (Homo sapiens (Human), UniProt P01116+P62937, G12D) and write it down.
6.00 to 7.00

Find pIC50 for CCn1c(-c2cccnc2[C@H](C)OC)c2c3cc(ccc31)-c1csc(n1)C[C@H](NC(=O)[C@H](C(C)C)N(C)C(=O)N1CCN(C(=O)C#CC(C)(C)N(C)C)CC1)C(=O)N1CCC[C@H](N1)C(=O)OCC(C)(C)C2 (atropisomer, axis not shown) [Example A479] on KRAS G12D (Homo sapiens (Human), UniProt P01116+P62937, G12D) and write it down.
6.00 to 7.00

Find pIC50 for CCn1c(-c2cncnc2)c2c3cc(ccc31)-c1cccc(c1)[C@@H](OC)[C@H](NC(=O)[C@H](C(C)C)N(C)C(=O)[C@H]1CCN(C(=O)C#CCN3CCOCC3)C1)C(=O)N1CCC[C@H](N1)C(=O)OCC(C)(C)C2 [Example A208] on KRAS G12D (Homo sapiens (Human), UniProt P01116+P62937, G12D) and write it down.
< 5.00

Find pIC50 for C=CC(=O)N1CCC(F)(C(=O)N(C)[C@H](C(=O)N[C@H]2Cc3cc(O)cc(c3)-c3ccc4c(c3)c(c(-c3ccccc3CN(C)C)n4CC)CC(C)(C)COC(=O)[C@@H]3CCCN(N3)C2=O)C(C)C)CC1 [Example A020] on KRAS G12D (Homo sapiens (Human), UniProt P01116+P62937, G12D) and write it down.
< 5.00

* * *

SYSTEM NAME: KRAS G12S (Homo sapiens (Human), UniProt P01116+P62937, G12S)
Sequence (P01116-2 other isoform, or with tags, fused parts or gaps G12S): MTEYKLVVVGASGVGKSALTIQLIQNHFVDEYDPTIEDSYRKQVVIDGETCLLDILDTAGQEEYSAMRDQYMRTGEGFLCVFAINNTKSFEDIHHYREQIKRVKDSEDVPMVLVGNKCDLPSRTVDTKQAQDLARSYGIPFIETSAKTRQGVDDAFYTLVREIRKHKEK
Sequence (P62937 whole entry): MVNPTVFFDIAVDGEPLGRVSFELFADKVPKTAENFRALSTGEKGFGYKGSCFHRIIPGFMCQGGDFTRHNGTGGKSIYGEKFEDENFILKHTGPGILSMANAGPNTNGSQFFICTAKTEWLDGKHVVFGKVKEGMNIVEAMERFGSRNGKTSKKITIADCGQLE
ASSAY PROCEDURE: Ras-Raf (BRAF RBD) disruption / FRET / MOA assay, KRAS G12S
Format: biochemical
TEST CONTEXT: Ras-Raf disruption/FRET/MOA assay; class symbols; read-out: KRAS G12S FRET data IC50
pIC50: −log10 of the molar value.
MEASURED ATTRIBUTE: pIC50

Give the value of pIC50 reported for the following: "C=CC(=O)N1CC[C@H](C(=O)N(C)[C@H](C(=O)N[C@H]2Cc3cc(O)cc(c3)-c3ccc4c(c3)c(c(C3=C(COC)CCCC3)n4CC)CC(C)(C)COC(=O)[C@@H]3CCCN(N3)C2=O)C(C)C)C1"
6.00 to 7.00

Give the value of pIC50 reported for the following: CCn1c(-c2cccnc2[C@H](C)OC)c2c3cc(ccc31)-c1cccc(c1)C[C@H](NC(=O)[C@H](C(C)C)N1CC[C@]3(CCN(C(=O)C#C[C@H]4COCCN4C)C3)C1=O)C(=O)N1CCC[C@H](N1)C(=O)OCC(C)(C)C2 (atropisomer, axis not shown)
5.00 to 6.00

Give the value of pIC50 reported for the following: "CCn1c(-c2cccnc2[C@H](C)OC)c2c3cc(ccc31)-c1cccc(c1)C[C@H](NC(=O)[C@H](C(C)C)N(C)C(=O)[C@@H]1CCN(C(=O)C#CC(C)(C)N3CCC3)C1)C(=O)N1CCC[C@H](N1)C(=O)OCC(C)(C)C2"
5.00 to 6.00

Give the value of pIC50 reported for the following: CCn1c(-c2cccnc2COC)c2c3cc(ccc31)-c1cc(O)cc(c1)C[C@H](NC(=O)[C@H](C(C)C)N(C)C(=O)[C@H]1CCC(C(=O)/C=C\CN(C)C)C1)C(=O)N1CCC[C@H](N1)C(=O)OCC(C)(C)C2 (some centres unmarked) [Example A164]
6.00 to 7.00

Give the value of pIC50 reported for the following: C/C=C/C(=O)N1CC2(CCN(C(=O)N(C)[C@H](C(=O)N[C@H]3Cc4nc(cs4)-c4ccc5c(c4)c(c(-c4cccnc4[C@H](C)OC)n5CC)CC(C)(C)COC(=O)[C@@H]4CCCN(N4)C3=O)C(C)C)CC2)C1 (atropisomer, axis not shown)
6.00 to 7.00

Give the value of pIC50 reported for the following: C=C(F)C(=O)N1CC(N(C)C(=O)N(C)[C@H](C(=O)N[C@H]2Cc3nc(cs3)-c3ccc4c(c3)c(c(-c3cccnc3[C@H](C)OC)n4CC)CC(C)(C)COC(=O)[C@@H]3CCCN(N3)C2=O)C(C)C)C1 (atropisomer, axis not shown)
6.00 to 7.00

Give the value of pIC50 reported for the following: CCn1c(-c2cccnc2[C@H](C)OC)c2c3cc(ccc31)-c1cccc(c1)C[C@H](NC(=O)[C@@H](COC1CN(C(=O)C#C[C@H]3COCCN3C)C1)C(C)C)C(=O)N1CCC[C@H](N1)C(=O)OCC(C)(C)C2 (atropisomer, axis not shown)
< 5.00

Give the value of pIC50 reported for the following: "CCn1c(-c2cccnc2COC)c2c3cc(ccc31)-c1cc(O)cc(c1)C[C@H](NC(=O)[C@H](C(C)C)N(C)C(=O)c1ccc(NC(=O)/C=C/CN(C)C)cn1)C(=O)N1CCC[C@H](N1)C(=O)OCC(C)(C)C2"
5.00 to 6.00

* * *

For each entry below, report its pIC50 value.
SYSTEM NAME: KRAS G13D (Homo sapiens (Human), UniProt P01116+P62937, G13D)
Sequence (P01116-2 other isoform, or with tags, fused parts or gaps G13D, one chain of several): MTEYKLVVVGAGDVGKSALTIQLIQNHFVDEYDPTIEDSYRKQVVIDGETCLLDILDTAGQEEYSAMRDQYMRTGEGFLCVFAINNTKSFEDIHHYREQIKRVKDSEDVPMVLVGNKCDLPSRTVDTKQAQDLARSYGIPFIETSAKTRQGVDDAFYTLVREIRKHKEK
ASSAY PROCEDURE: Ras-Raf (BRAF RBD) disruption / FRET / MOA assay, KRAS G13D
Assay type: biochemical
TEST CONTEXT: read-out: IC50* KRAS G13D FRET data
pIC50: −log10 of the molar value.

Give the value of pIC50 reported for the following: CCn1c(-c2cccnc2[C@H](C)OC)c2c3cc(ccc31)-c1cccc(n1)C[C@H](NC(=O)[C@H](C(C)C)N(C)C(=O)N1CCC13CN(C(=O)C#CC(C)(C)N(C)C)C3)C(=O)N1CCC[C@H](N1)C(=O)OCC(C)(C)C2 (atropisomer, axis not shown)
5.00 to 6.00

Give the value of pIC50 reported for the following: C=CC(=O)N1C[C@@H](F)[C@](F)(C(=O)N(C)[C@H](C(=O)N[C@H]2Cc3cccc(c3)-c3ccc4c(c3)c(c(-c3cccnc3[C@H](C)OC)n4CC)CC(C)(C)COC(=O)[C@@H]3CCCN(N3)C2=O)C(C)C)C1 (atropisomer, axis not shown)
5.00 to 6.00

Give the value of pIC50 reported for the following: CCn1c(-c2cccnc2[C@H](C)OC)c2c3cc(ccc31)-c1cccc(c1)C[C@H](NC(=O)[C@H](C(C)C)N(C)C(=O)[C@H]1CCN(C(=O)C#CC3CCO3)C1)C(=O)N1CCC[C@H](N1)C(=O)OCC(C)(C)C2 (mixture of isomers)
5.00 to 6.00

Give the value of pIC50 reported for the following: CO[C@@H](C)c1ncccc1-c1c2c3cc(ccc3n1CC(F)(F)F)-c1cc(cc(C(F)F)c1)C[C@H](NC(=O)[C@@H](COC1CN(C(=O)C#CC(C)(C)N(C)C)C1)C(C)C)C(=O)N1CCC[C@H](N1)C(=O)OCC(C)(C)C2 (atropisomer, axis not shown)
< 5.00

Give the value of pIC50 reported for the following: C=CC(=O)N1CC[C@H](C(=O)N(C)[C@H](C(=O)N[C@H]2Cc3nc(cs3)-c3ccc4c(c3)c(c(-c3cccnc3[C@H](C)OC)n4CC)CC(C)(C)CCC[C@@H]3CCCN(N3)C2=O)C(C)C)C1 (atropisomer, axis not shown)
< 5.00

Give the value of pIC50 reported for the following: "C=CC(=O)N1CC[C@H](C(=O)N(C)[C@H](C(=O)N[C@H]2Cc3cc(O)cc(c3)-c3ccc4c(c3)c(c(-c3cc(N5CC(OC)C5)ccn3)n4CC)CC(C)(C)COC(=O)[C@@H]3CCCN(N3)C2=O)C(C)C)C1"
5.00 to 6.00

Give the value of pIC50 reported for the following: "CCn1c(-c2cccnc2COC)c2c3cc(ccc31)-c1cc(O)cc(c1)C[C@H](NC(=O)[C@H](C(C)C)N(C)C(=O)[C@H]1C[C@@H](C)N(C(=O)C#CCN(C)C)C1)C(=O)N1CCC[C@H](N1)C(=O)OCC(C)(C)C2"
5.00 to 6.00

Give the value of pIC50 reported for the following: C=CC(=O)N1CCO[C@@H]2CN(C(=O)N(C)[C@H](C(=O)N[C@H]3Cc4nc(cs4)-c4ccc5c(c4)c(c(-c4cccnc4[C@H](C)OC)n5CC)CC(C)(C)COC(=O)[C@@H]4CCCN(N4)C3=O)C(C)C)C[C@H]21 (atropisomer, axis not shown)
6.00 to 7.00
